These entries and their values trace back to PubChem BioAssay (NCI).

Tested on: SK-MEL-28 melanoma
assay protocol: NCI tumour cell line growth inhibition, 48 h
experimental endpoint: TGI

Reference set, count: 4
- compound: "COc1cc(C(=O)N(Cc2cccnc2)C(=S)N(Cc2cccnc2)C(=O)c2cc(OC)c(OC)c(OC)c2)cc(OC)c1OC"
  TGI: "> 100 µM"
- compound: "N=C1C(c2nc3ccccc3s2)=C(O)CN1c1cc(C(F)(F)F)ccc1Cl"
  TGI: "> 100 µM"
- compound: "Cc1cc(C(=O)Nc2ncc(Cc3cccc(C(F)(F)F)c3)s2)c2ccccc2n1"
  TGI: "> 100 µM"
- compound: "CON(C)C(=O)CNC(=O)OCC1c2ccccc2-c2ccccc21"
  TGI: "> 100 µM"

Each compound below has a reported value. Please supply its TGI.
1. Cc1ccc(C(=O)CN(/C=C/C(=O)C(F)(F)F)c2ccc(S(N)(=O)=O)cc2)cc1
2. O=C1OC(C(O)CO)C(=O)C1=O (stereo unspecified)

Result string:
1. > 100 µM
2. > 10000 µM

====

Tested on: HOP-92 NSCLC
assay protocol: NCI tumour cell line growth inhibition, 48 h
experimental endpoint: TGI

- compound: "NCC1Nc2ccccc2[C@@H](O)C1O (some centres undefined)"
  experimental endpoint: "TGI"
  value observed: "> 100 µM"
- compound: "COc1ccc2ccccc2c1/C=C/C(=O)c1ccccc1"
  experimental endpoint: "TGI"
  value observed: "6.97 µM"
- compound: "CC(C)C(Nc1c2ccccc2nc2ccccc12)C(=O)O (centres undefined)"
  experimental endpoint: "TGI"
  value observed: "> 100 µM"
- compound: "CC1=NNC(N)=N/C1=C\\C(Sc1ccc(Cl)cc1)c1ccc([N+](=O)[O-])cc1 (centres undefined)"
  experimental endpoint: "TGI"
  value observed: "> 100 µM"

Kindly give each listed record's TGI.
1. CCCCCCCC/C=C/CCCCCCCC(=O)OC[C@H]1O[C@@H](n2ccc(N)nc2=O)C(F)(F)[C@@H]1O
2. COc1cc(C(=O)N(Cc2cccnc2)C(=S)N(Cc2cccnc2)C(=O)c2cc(OC)c(OC)c(OC)c2)cc(OC)c1OC
3. Cn1c2c(c3ccccc31)CC1c3c(c4ccccc4n3C)CC21 (centres undefined)
4. O=C(O)c1ccc([N+](=O)[O-])c2cc3cnccc3nc12
5. O=c1[nH]nc(-c2ccccc2)c2[nH]c3c4ccccc4ccc3c12

Result string:
1: 34.7 µM; 2: 52.2 µM; 3: > 100 µM; 4: 45.8 µM; 5: > 100 µM

====

Test system: HOP-62 NSCLC
assay protocol: NCI tumour cell line growth inhibition, 48 h
experimental endpoint: TGI

The cases that follow already have their TGI on record.
- compound: "Oc1cccnc1CN1CCCCC1"
  TGI: "> 100 µM"
- compound: "Cn1cc(NC(=O)c2cc(NC(=O)CN=C(N)N)cn2C)cc1C(=O)NCCC(=N)N"
  TGI: "> 100 µM"
- compound: "Cc1cccc(N=NC(=O)NNc2cccc(C)c2C)c1C"
  TGI: "86.7 µM"
- compound: "Cc1cc(C(=O)Nc2ncc(Cc3cccc(C(F)(F)F)c3)s2)c2ccccc2n1"
  TGI: "> 100 µM"
- compound: "N#CC(NNC(=O)Cc1ccccc1)c1c(O)ccc2ccccc12 (stereo unspecified)"
  TGI: "59.2 µM"

In the following, a different compound is considered.
Query string: Request - read-out TGI | tested on HOP-62 NSCLC | compound NCC1Nc2ccccc2[C@@H](O)C1O (stereo partly specified)
Result string: > 100 µM

====

System: OVCAR-5 ovarian
assay protocol: NCI tumour cell line growth inhibition, 48 h
Exercise: state measured log10(TGI) for each of the compounds provided.
The common logarithm of TGI in µM is what is listed.

- compound: "COC1=C(OC)C(=O)C(Cc2c(C)nc3sc(C)cn23)=C(C)C1=O"
  value observed: 1.61
- compound: "COC1=C(C)C(=O)c2c(c(COC(N)=O)c3n2CC2C3N2C)C1=O (stereo unspecified)"
  value observed: -0.49
- compound: "N#C/C(=C1C=C(Br)/C(=N\\O)C=C\\1Cl)c1cccc2ccccc12"
  value observed: 1.26
- compound: "O=C1OC(C(O)CO)C(=O)C1=O (stereo unspecified)"
  value observed: 3.64
- compound: "C=C1C(=O)O[C@@H]2/C=C(\\C)CC/C=C(/COC(C)=O)C[C@@H](OC(C)=O)[C@@H]12"
  value observed: 1.54
- compound: "COc1cc(/C=C/c2cc(/C=C/c3ccc(O)c(OC)c3)n(C(=O)Nc3ccc(F)c(Cl)c3)n2)ccc1O"
  value observed: 0.84

Would you kindly look at the next entry?
Query string: What measured log10(TGI) goes with COc1ccccc1CCc1cc(OC)c(OC)c(OC)c1 ?
Result string: 1.71

====

Test system: SF-295 CNS
assay protocol: NCI tumour cell line growth inhibition, 48 h
So I've got a bunch of compounds here, and I need their GI50 values.

- input smiles: "Cc1cc(C(=O)Nc2ncc(Cc3cccc(C(F)(F)F)c3)s2)c2ccccc2n1"
  GI50: "1630 nM"
- input smiles: "C[C@@]12CC=C3c4nc(Nc5cccc(O)c5)sc4CC[C@]3(C)[C@H]1CC[C@]1(C)C(=O)CC[C@@H]21"
  GI50: "2490 nM"

Now look at this one.
Query string: Which GI50 is reported for this compound? COC(=O)[C@H](C)NC(=O)NC(=O)NC(=O)CI
Result string: 17400 nM

====

System: HCC-2998 colon
assay protocol: NCI tumour cell line growth inhibition, 48 h; in the data active means GI50 below about 0.43 µM; inactive means the rest
Would you mind answering with one of these outcomes? YES for active, NO for inactive

- compound: "Cc1ccc(C(=O)CN(/C=C/C(=O)C(F)(F)F)c2ccc(S(N)(=O)=O)cc2)cc1"
  cat: "NO"
- compound: "CN1CCN(CCCOc2ccc3nc(Nc4ccc(Cl)c(C(F)(F)F)c4)ccc3c2)CC1"
  cat: "NO"
- compound: "COc1ccccc1CNCCCN1C(=O)c2ccc3c4c(ccc(c24)C1=O)C(=O)N(CCCOCCCCOCCCN)C3=O"
  cat: "NO"
- compound: "CC(=O)/C(C)=N/NC(=O)c1ccccc1O"
  cat: "NO"
- compound: "COc1nc2ccccc2cc1-c1nc2c(cnn2-c2ccc(Br)cc2)c(=O)[nH]1"
  cat: "NO"

Query string: Dear colleague, could you share the recorded outcome for c1cc(CNC23CC4CC(CC(C4)C2)C3)cc(C[N+](Cc2cccc(CNC34CC5CC(CC(C5)C3)C4)c2)(Cc2cccc(CNC34CC5CC(CC(C5)C3)C4)c2)Cc2cccc(CNC34CC5CC(CC(C5)C3)C4)c2)c1 (configuration not stated) when you have a moment?
Result string: NO

Query string: Dear all, I need the recorded test outcome for CN1C/C=C\CCOc2cccc(c2)-c2ccnc(n2)Nc2cccc(c2)C1 , thank you.
Result string: YES

====

Tested on: SNB-19 CNS
assay protocol: NCI tumour cell line growth inhibition, 48 h; in the data active = GI50 below about 0.43 µM; inactive = the rest
Just give me one of these, please: true (1) = active, false (0) = inactive

Field: example entries. Status: answers known.
- compound: "N=C1C(c2nc3ccccc3s2)=C(O)CN1c1cc(C(F)(F)F)ccc1Cl"
  cat: "false (0)"
- compound: "CC(C)(C)c1cc(C(C)(C)C)cc(S(=O)(=O)Nc2cc3ccccc3cc2C(=O)NCCN)c1"
  cat: "false (0)"
- compound: "COc1cc2nc3cc([N+](=O)[O-])ccc3c(NCCCNCCO)c2cc1OC"
  cat: "true (1)"
- compound: "CNc1ccc(C(=O)CC(O)CCC(C)C2OC(=O)CC(O)CC(=O)CC(O)CC(O)CC(O)CC(O)CC3(O)CC(O)C(C(=O)OC)C(CC(O[C@@H]4O[C@H](C)[C@@H](O)[C@H](N)[C@@H]4O)/C=C/C=C/C=C/C=C/C=C/C=C/C=C/C2C)O3)cc1 (stereo not given in full)"
  cat: "false (0)"

Query string: Write down the call the test reported for this compound. Item: O=C1OC(C(O)CO)C(=O)C1=O (stereo not given)
Result string: false (0)

====

For each of the compounds below, state its TGI.
Test system: SK-OV-3 ovarian
assay protocol: NCI tumour cell line growth inhibition, 48 h

Solved cases (5 shown):
- compound: "CN1C(=O)c2cccc3cc([N+](=O)[O-])cc(c23)C1=O"
  TGI: "> 10 µM"
- compound: "Cc1ccc(SCC(CF)OC(C)n2cnc3c(=O)[nH]c(N)nc32)cc1 (stereo not drawn)"
  TGI: "> 100 µM"
- compound: "C=C1C(=O)O[C@@H]2/C=C(\\C)CC/C=C(/COC(C)=O)C[C@@H](OC(C)=O)[C@@H]12"
  TGI: "> 100 µM"
- compound: "Clc1nc(Cl)c(Cl)c(-c2ccccc2)n1"
  TGI: "25.8 µM"
- compound: "Cc1ccn2c(c1)nc1nc3ccccc3nc12"
  TGI: "> 100 µM"

Provide TGI for all items below, preserving their order.
1. CCOCc1nc2c(OC)cc(-c3nc4ccc(N5CCN(C)CC5)cc4[nH]3)c(OC)c2[nH]1
2. N#C/C(=C1C=C(Br)/C(=N\O)C=C\1Cl)c1cccc2ccccc12
3. COc1cc(CNCc2cc(OC)c(OC)c(OC)c2)cc(OC)c1OC
4. COc1ccc(-c2n[nH]nc2-c2cc(OC)c(OC)c(OC)c2)cc1
5. CC1(C)SCc2nc3ncccc3n21
6. CCOc1ccccc1N=Nc1ccc2oc(=O)c(C(=O)Nc3cccc(C)c3)cc2c1

Result string:
1. > 100 µM
2. 20.3 µM
3. > 10 µM
4. 0.44 µM
5. > 100 µM
6. > 100 µM

Each compound below has a recorded value; state its TGI.
1. COc1cc2c(cc1OC)C(CC(=O)NN=C(C)C)NCC2 (stereo not drawn)
2. COc1cc2ncnc(Nc3ccc(C)c(O)c3)c2cc1OC
3. Cc1cc(S(=O)(=O)N=C2N(Cc3ccccc3)CCN2Cc2ccccc2)c(S)cc1Cl
4. CCN(CC)C(=O)Cn1c(C)cc2ccccc21
5. CC(=O)/C(C)=N/NC(=O)c1ccccc1O
6. NS(=O)(=O)c1ccc(N=Nc2c(O)[nH]c3ccc(-c4cnco4)cc23)cc1
7. Cc1cccc(NC(=O)C(=O)C(C(=O)c2ccc3ccccc3c2)C2OC(=O)c3ccccc32)c1C (stereo not drawn)
8. O=C1CCN2C(=O)CCN12

Result string:
1: > 100 µM; 2: > 19.9 µM; 3: > 100 µM; 4: > 100 µM; 5: > 100 µM; 6: > 25 µM; 7: 54.4 µM; 8: > 100 µM
